Recorded measurements of IC50, one per entry
target: CDK4-NanoLuc fusion with CCND1 in 293T or 293 cells (Homo sapiens, UniProt P11802); construct: host or cells: 293T (ATCC CRL-3216) or 293 (ATCC CRL-1573); test: NanoBRET Target Engagement (TE) Intracellular Kinase Assay, CDK4/CCND1; assay type: cell-based; conditions: NanoBRET TE intracellular kinase assay, 2-hour incubation, read-out: NanoBRET-CDK4/D1 IC50
Sequence (P11802 whole entry, the tested form may be a part): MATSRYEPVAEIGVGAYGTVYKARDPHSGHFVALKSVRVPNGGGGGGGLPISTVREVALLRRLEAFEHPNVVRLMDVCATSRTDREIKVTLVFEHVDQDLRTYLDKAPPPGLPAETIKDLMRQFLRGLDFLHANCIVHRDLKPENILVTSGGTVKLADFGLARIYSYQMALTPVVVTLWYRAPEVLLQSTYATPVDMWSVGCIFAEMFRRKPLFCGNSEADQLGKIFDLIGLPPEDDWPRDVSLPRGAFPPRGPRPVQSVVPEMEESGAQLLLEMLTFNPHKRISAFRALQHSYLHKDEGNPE
Sequence (P24385 whole entry partner, the tested form may be a part): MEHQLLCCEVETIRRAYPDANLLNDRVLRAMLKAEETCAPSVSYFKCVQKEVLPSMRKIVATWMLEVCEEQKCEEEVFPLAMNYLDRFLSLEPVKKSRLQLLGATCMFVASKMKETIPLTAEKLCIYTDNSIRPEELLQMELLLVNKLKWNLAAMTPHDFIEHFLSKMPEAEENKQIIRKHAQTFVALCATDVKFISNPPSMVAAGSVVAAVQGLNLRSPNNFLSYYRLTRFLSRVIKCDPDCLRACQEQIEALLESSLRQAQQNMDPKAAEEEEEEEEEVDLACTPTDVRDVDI
measurementLabel: IC50

structureSmiles | targetOrSystem | reportedResult
CC(C)NC(=O)O[C@@H]1CC[C@H](c2cc(NC(=O)CNc3cccc(O)c3C=O)n[nH]2)C1 | CDK4-NanoLuc fusion with CCND1 in 293T or 293 cells (Homo sapiens, UniProt P11802) | > 10 µM
COc1cc(O)c(C=O)c(OCC(=O)Nc2cc([C@H]3CC[C@@H](OC(=O)NCC4COC4)C3)[nH]n2)c1 | CDK4-NanoLuc fusion with CCND1 in 293T or 293 cells (Homo sapiens, UniProt P11802) | > 10 µM
CNN(C)C(=O)O[C@@H]1CC[C@H](c2cc(NC(=O)COc3cc(OC)cc(O)c3C=O)n[nH]2)C1 | CDK4-NanoLuc fusion with CCND1 in 293T or 293 cells (Homo sapiens, UniProt P11802) | > 10 µM
